# pIC50 measurements, system: AKT1 (Homo sapiens)
# Sequence (P31749 whole entry): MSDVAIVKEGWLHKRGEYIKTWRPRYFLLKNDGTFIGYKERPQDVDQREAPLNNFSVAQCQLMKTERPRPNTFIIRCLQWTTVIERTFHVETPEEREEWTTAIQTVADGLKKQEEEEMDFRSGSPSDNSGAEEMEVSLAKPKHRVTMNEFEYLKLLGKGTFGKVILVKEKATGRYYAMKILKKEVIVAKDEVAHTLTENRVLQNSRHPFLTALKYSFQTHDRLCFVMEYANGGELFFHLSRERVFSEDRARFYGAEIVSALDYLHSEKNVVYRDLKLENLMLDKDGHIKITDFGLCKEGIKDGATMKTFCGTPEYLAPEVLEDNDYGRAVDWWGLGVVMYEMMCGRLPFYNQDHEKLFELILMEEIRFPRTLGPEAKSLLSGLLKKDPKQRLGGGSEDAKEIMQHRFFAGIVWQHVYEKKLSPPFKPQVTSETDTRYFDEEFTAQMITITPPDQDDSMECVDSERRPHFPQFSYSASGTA
// returns pIC50 (minus log10 of molar concentration), number only

pIC50 in this record for "CC(C)NC[C@@H](C(=O)N1CC2COCC(C1)N2c1ncnc2[nH]ccc12)c1ccc(Cl)cc1" : 7.09

Lookup result for "CC(C)NC[C@@H](C(=O)N1C2COCC1CN(c1ncnc3[nH]ccc13)C2)c1ccc(Cl)cc1" ; measured pIC50: 7.05

For this molecule ( "CC(C)NC[C@@H](C(=O)N1[C@@H]2CC[C@H]1CN(c1ncnc3c1[C@H](C)C[C@H]3O)C2)c1ccc(Cl)cc1" ), measured pIC50 is 7.41

For record "CC(C)NC[C@@H](C(=O)N1[C@@H]2CC[C@H]1CN(c1ncnc3[nH]ccc13)C2)c1ccc(Cl)cc1" the listed pIC50 is 7.70

The reported value for "Cc1c[nH]c2nccc(N3C[C@H]4CC[C@@H](C3)N4C(=O)[C@H](CNC(C)C)c3ccc(Cl)cc3)c12" in terms of pIC50 is 7.71

Reported pIC50 of "CC(C)NC[C@@H](C(=O)N1C2CCC1CN(c1ncnc3c1C(C)(C)C(=O)N3)C2)c1ccc(Cl)cc1" : 7.22

Value of pIC50 reported for the molecule "CC(C)NC[C@@H](C(=O)N1C2CCCC1CN(c1ncnc3[nH]ccc13)C2)c1ccc(Cl)cc1" is 7.17

---

Please respond with reported CL/F for every item in the list.
Assay: Pharmacokinetic study in nude mice, intragastric administration
Assay type: in vivo
Details: female, mouse, po; Balb/c nude mice, i.g., 100 mg/kg, plasma; read-out: Clearance CL/F
Description: The drug concentration in the plasma of the test animals (Balb/c nude mice) at different time points after intragastric administration (i.g.) of the test compounds was determined by using an LC/MS/MS method. The pharmacokinetic performance of the compounds of the present disclosure in nude mice was studied and their pharmacokinetic profile was evaluated. 18 Balb/c nude mice, female, divided into 2 groups and purchased from Vital River Laboratory Animal Technology Co., Ltd. […]
Number only, in mL/min/kg; omit the unit.

So for "CC(C)NC[C@@H](C(=O)N1[C@@H]2CC[C@H]1CN(c1ncnc3c1[C@H](C)C[C@H]3O)C2)c1ccc(Cl)cc1" , the logged CL/F turned out to be 60.5

# CL/F of "CC(C)NC[C@@H](C(=O)N1C2CCC1CN(c1ncnc3c1C(C)(C)C(=O)N3)C2)c1ccc(Cl)cc1" = 45.4
